System: Human rhinovirus 1A
Test: In vitro determined against HRV-1A in a plaque reduction assay
Type: functional
resultType: MIC (µM)
Give the quantity in µM, number only.

See these solved cases before continuing.
# input molecule: Cc1cc(CCCCCOc2c(Cl)cc(C3=NCCO3)cc2Cl)on1 ; wanted: its MIC 2.5

Next molecule: Cc1cc(CCCOc2c(Cl)cc(C3=NCCO3)cc2Cl)on1 0.46

Next molecule: Cc1cc(CC/C=C\COc2c(Cl)cc(C3=NCCO3)cc2Cl)on1 4.72

Okay, now this molecule:
# input molecule: Cc1cc(CC/C=C/COc2c(Cl)cc(C3=NCCO3)cc2Cl)on1 ; wanted: its MIC 2.25
